- testTarget: Cystic fibrosis transmembrane conductance regulator (Homo sapiens)
- experimentalProtocol: Activation of human CFTR expressed in FRT cells co-expressing YFP assessed as increase in forskolin-stimulated iodide influx at 10 uM measured after 10 mins for 2 to 12 sec by fluorescence assay
- Format: cell-based
- Sequence (P13569 whole entry, looked up): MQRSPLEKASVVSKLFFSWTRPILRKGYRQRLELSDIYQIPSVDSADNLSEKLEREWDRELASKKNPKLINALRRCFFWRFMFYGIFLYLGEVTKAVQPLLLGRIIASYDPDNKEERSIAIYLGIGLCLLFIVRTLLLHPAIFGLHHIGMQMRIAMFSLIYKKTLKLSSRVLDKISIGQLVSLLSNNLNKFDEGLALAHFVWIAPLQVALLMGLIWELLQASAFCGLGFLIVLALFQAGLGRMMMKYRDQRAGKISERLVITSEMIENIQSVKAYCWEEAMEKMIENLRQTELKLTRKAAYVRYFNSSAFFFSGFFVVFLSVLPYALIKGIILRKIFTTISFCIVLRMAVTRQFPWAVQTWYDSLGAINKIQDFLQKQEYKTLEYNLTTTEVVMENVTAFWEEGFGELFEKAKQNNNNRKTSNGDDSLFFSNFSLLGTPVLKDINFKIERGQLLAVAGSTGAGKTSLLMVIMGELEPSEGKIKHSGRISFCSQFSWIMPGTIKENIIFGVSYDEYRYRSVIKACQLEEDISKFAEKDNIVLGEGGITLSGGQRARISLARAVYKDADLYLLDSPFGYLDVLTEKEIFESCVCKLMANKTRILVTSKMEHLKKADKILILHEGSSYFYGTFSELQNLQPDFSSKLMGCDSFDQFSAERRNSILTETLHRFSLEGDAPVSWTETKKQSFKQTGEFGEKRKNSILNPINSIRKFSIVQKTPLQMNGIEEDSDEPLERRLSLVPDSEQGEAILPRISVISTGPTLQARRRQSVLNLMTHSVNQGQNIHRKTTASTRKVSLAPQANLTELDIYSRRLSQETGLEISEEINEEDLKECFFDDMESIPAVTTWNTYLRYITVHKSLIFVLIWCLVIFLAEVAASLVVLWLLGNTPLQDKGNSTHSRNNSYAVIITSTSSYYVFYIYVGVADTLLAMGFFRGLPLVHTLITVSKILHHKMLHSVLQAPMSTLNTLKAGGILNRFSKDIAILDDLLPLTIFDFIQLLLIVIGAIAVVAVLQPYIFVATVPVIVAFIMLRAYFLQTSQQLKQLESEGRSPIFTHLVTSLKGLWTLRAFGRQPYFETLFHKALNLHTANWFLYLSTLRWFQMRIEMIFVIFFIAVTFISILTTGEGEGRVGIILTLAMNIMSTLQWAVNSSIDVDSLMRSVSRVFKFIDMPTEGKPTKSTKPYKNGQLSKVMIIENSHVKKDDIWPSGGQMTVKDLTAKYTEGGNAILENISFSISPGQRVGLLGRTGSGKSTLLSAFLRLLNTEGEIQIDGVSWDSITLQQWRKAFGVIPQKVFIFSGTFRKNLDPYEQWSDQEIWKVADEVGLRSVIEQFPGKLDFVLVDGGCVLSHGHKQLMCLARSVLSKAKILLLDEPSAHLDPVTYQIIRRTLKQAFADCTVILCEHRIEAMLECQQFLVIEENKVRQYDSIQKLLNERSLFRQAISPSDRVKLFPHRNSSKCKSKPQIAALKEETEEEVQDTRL
Active and inactive are the calls of the source. No cut-off for these calls is given here.
Outcome codes: label 1 = active, label 0 = inactive

{"columns": ["compound", "answerLabel"],
 "data": [
  ["Fc1ccc(Nc2nc(OC(C(F)(F)F)C(F)(F)F)nc(N3CCCCC3)n2)cc1", "label 0"],
  ["FC(F)(F)C(Oc1nc(Nc2cccnc2)nc(OC(C(F)(F)F)C(F)(F)F)n1)C(F)(F)F", "label 0"],
  ["CCC(C)Nc1nc(Nc2ccc([N+](=O)[O-])cc2)nc(OC(C(F)(F)F)C(F)(F)F)n1 (centres undefined)", "label 0"],
  ["O=[N+]([O-])c1ccc(Nc2nc(OC(C(F)(F)F)C(F)(F)F)nc(OC(C(F)(F)F)C(F)(F)F)n2)cc1", "label 0"],
  ["CC(=O)N1CCN(c2nc(Nc3ccccc3C(=O)c3ccccc3)nc(OC(C(F)(F)F)C(F)(F)F)n2)CC1", "label 0"],
  ["Cc1ccccc1Nc1nc(OC(C(F)(F)F)C(F)(F)F)nc(OC(C(F)(F)F)C(F)(F)F)n1", "label 0"],
  ["CNc1nc(Nc2ccc(C(C)=O)cc2)nc(OC(C(F)(F)F)C(F)(F)F)n1", "label 0"],
  ["FC(F)(F)C(Oc1nc(N2CCCCCC2)nc(N(c2ccccc2)c2ccccc2)n1)C(F)(F)F", "label 0"],
  ["Cc1ccc(Nc2nc(OC(C(F)(F)F)C(F)(F)F)nc(N3CCCCC3)n2)cc1", "label 0"],
  ["CNc1nc(Nc2ccc(OC(F)(F)Cl)cc2)nc(OCC(F)(F)F)n1", "label 0"],
  ["O=[N+]([O-])c1cccc(Nc2nc(OC(C(F)(F)F)C(F)(F)F)nc(OC(C(F)(F)F)C(F)(F)F)n2)c1", "label 0"],
  ["CC(C)Nc1nc(Nc2ccc([N+](=O)[O-])cc2)nc(OC(C(F)(F)F)C(F)(F)F)n1", "label 0"],
  ["CN(C)c1nc(Nc2ccc(OC(F)(F)F)cc2)nc(OCC(F)(F)F)n1", "label 0"],
  ["C=CCNc1nc(Nc2cccc([N+](=O)[O-])c2)nc(OC(C(F)(F)F)C(F)(F)F)n1", "label 1"],
  ["COc1nc(Nc2ccc([N+](=O)[O-])cc2)nc(OC)n1", "label 0"],
  ["CNc1nc(Nc2ccc([N+](=O)[O-])cc2)nc(OCC(F)(F)C(F)F)n1", "label 1"],
  ["CC(C)(C)Nc1nc(Nc2ccc(OC(F)(F)Cl)cc2)nc(OCC(F)(F)F)n1", "label 0"],
  ["CC(=O)c1ccc(Nc2nc(OC(C(F)(F)F)C(F)(F)F)nc(OC(C(F)(F)F)C(F)(F)F)n2)cc1", "label 0"],
  ["CNc1nc(Nc2ccccc2C(F)(F)F)nc(OC(C(F)(F)F)C(F)(F)F)n1", "label 0"]
]}

---

Measured solubility by item
- experimentalProtocol: Solubility of the compound in phosphate buffered solution
- Type: physicochemical

{"columns": ["smiles", "solubility"],
 "data": [
  ["CCN(CC)c1nc(Nc2ccc3ncsc3c2)nc(OC(C(F)(F)F)C(F)(F)F)n1", "≤ 10 µM"],
  ["CNc1nc(Nc2ccccc2)nc(OCC(F)(F)C(F)F)n1", "≤ 10 µM"]
]}

---

- experimentalProtocol: Metabolic stability in rat hepatic microsomes assessed as parent compound remaining at 5 uM after 60 mins in presence of NADPH by LC-MS analysis
- Format: ADME, Microsome
- conditionSet: liver microsomes, read-out: Stability

{"columns": ["smiles", "remaining at 1 h, 5 µM"],
 "data": [
  ["CCN(CC)c1nc(Nc2ccc3ncsc3c2)nc(OC(C(F)(F)F)C(F)(F)F)n1", "60%"],
  ["CCN(CC)c1nc(Nc2ccc3ncoc3c2)nc(OC(C(F)(F)F)C(F)(F)F)n1", "60%"]
]}

---

- testTarget: Cystic fibrosis transmembrane conductance regulator (Homo sapiens, UniProt P13569)
- experimentalProtocol: Activation of human CFTR expressed in FRT cells co-expressing YFP assessed as increase in forskolin-stimulated iodide influx at 10 uM measured after 10 mins for 2 to 12 sec by fluorescence assay
- Format: cell-based
Activity calls are given as the source filed them. The rule behind the calls is not given here.
Outcome codes: true (1) = active, false (0) = inactive

{"columns": ["smiles", "testTarget", "answerLabel"],
 "data": [
  ["FC(F)(F)C(Oc1nc(Nc2ccccc2)nc(OC(C(F)(F)F)C(F)(F)F)n1)C(F)(F)F", "Cystic fibrosis transmembrane conductance regulator (Homo sapiens, UniProt P13569)", "false (0)"],
  ["FC(F)(F)COc1nc(Nc2ccc(OC(F)(F)Cl)cc2)nc(OCC(F)(F)F)n1", "Cystic fibrosis transmembrane conductance regulator (Homo sapiens, UniProt P13569)", "false (0)"],
  ["COc1nc(Nc2ccc(OC)c(Cl)c2)nc(OC)n1", "Cystic fibrosis transmembrane conductance regulator (Homo sapiens, UniProt P13569)", "false (0)"],
  ["FC(F)(F)COc1nc(Nc2ccccc2)nc(OCC(F)(F)F)n1", "Cystic fibrosis transmembrane conductance regulator (Homo sapiens, UniProt P13569)", "false (0)"],
  ["CCN(CC)c1nc(Nc2ccccc2)nc(OC(C(F)(F)F)C(F)(F)F)n1", "Cystic fibrosis transmembrane conductance regulator (Homo sapiens, UniProt P13569)", "true (1)"],
  ["FC(F)(F)COc1nc(Nc2ccc(OC(F)(F)F)cc2)nc(NC2CC2)n1", "Cystic fibrosis transmembrane conductance regulator (Homo sapiens, UniProt P13569)", "false (0)"],
  ["O=[N+]([O-])c1ccccc1Nc1nc(OC(C(F)(F)F)C(F)(F)F)nc(OC(C(F)(F)F)C(F)(F)F)n1", "Cystic fibrosis transmembrane conductance regulator (Homo sapiens, UniProt P13569)", "false (0)"],
  ["FC(F)(F)C(Oc1nc(Nc2ccc(Cl)cc2)nc(N2CCOCC2)n1)C(F)(F)F", "Cystic fibrosis transmembrane conductance regulator (Homo sapiens, UniProt P13569)", "false (0)"],
  ["COc1ccc(Nc2nc(NC3CCCCC3)nc(OC(C(F)(F)F)C(F)(F)F)n2)cc1", "Cystic fibrosis transmembrane conductance regulator (Homo sapiens, UniProt P13569)", "false (0)"],
  ["Cc1ccc(Nc2nc(OC(C(F)(F)F)C(F)(F)F)nc(OC(C(F)(F)F)C(F)(F)F)n2)cc1", "Cystic fibrosis transmembrane conductance regulator (Homo sapiens, UniProt P13569)", "false (0)"]
]}

---

Listed here: items and their measured pEC50.
- testTarget: Cystic fibrosis transmembrane conductance regulator (Homo sapiens, UniProt P13569)
- experimentalProtocol: Activation of human CFTR expressed in FRT cells co-expressing YFP assessed as increase in forskolin-stimulated iodide influx measured after 10 mins for 2 to 12 sec by fluorescence assay
- Sequence (P13569 whole entry): as the sequence (P13569 whole entry, looked up) above
pEC50: −log10 of the molar value.
valueType: pEC50

{"columns": ["smiles", "testTarget", "measuredNumber"],
 "data": [
  ["CCN(CC)c1nc(Nc2ccc([N+](=O)[O-])cc2)nc(OC(C(F)(F)F)C(F)(F)F)n1", "Cystic fibrosis transmembrane conductance regulator (Homo sapiens, UniProt P13569)", 4.74],
  ["CCN(CC)c1nc(Nc2cccc(Cl)c2)nc(OC(C(F)(F)F)C(F)(F)F)n1", "Cystic fibrosis transmembrane conductance regulator (Homo sapiens, UniProt P13569)", 5.55],
  ["CCN(CC)c1nc(Nc2cccc([N+](=O)[O-])c2)nc(OC(C(F)(F)F)C(F)(F)F)n1", "Cystic fibrosis transmembrane conductance regulator (Homo sapiens, UniProt P13569)", 6.70],
  ["CCN(CC)c1nc(Nc2ccc(C(=O)O)cc2)nc(OCC(F)(F)C(F)F)n1", "Cystic fibrosis transmembrane conductance regulator (Homo sapiens, UniProt P13569)", 5.60],
  ["CCN(CC)c1nc(Nc2ccc3[nH]ncc3c2)nc(OC(C(F)(F)F)C(F)(F)F)n1", "Cystic fibrosis transmembrane conductance regulator (Homo sapiens, UniProt P13569)", 5.55]
]}
